- tested_system: T1, NaPi2b expressed on IGROV-1 cells (Homo sapiens, UniProt O95436)
- T1 construct: IGROV-1 cells express endogenous NaPi2b at a high level; endogenous in cells; host or cells: IGROV-1
- T1 sequence (O95436 1-690): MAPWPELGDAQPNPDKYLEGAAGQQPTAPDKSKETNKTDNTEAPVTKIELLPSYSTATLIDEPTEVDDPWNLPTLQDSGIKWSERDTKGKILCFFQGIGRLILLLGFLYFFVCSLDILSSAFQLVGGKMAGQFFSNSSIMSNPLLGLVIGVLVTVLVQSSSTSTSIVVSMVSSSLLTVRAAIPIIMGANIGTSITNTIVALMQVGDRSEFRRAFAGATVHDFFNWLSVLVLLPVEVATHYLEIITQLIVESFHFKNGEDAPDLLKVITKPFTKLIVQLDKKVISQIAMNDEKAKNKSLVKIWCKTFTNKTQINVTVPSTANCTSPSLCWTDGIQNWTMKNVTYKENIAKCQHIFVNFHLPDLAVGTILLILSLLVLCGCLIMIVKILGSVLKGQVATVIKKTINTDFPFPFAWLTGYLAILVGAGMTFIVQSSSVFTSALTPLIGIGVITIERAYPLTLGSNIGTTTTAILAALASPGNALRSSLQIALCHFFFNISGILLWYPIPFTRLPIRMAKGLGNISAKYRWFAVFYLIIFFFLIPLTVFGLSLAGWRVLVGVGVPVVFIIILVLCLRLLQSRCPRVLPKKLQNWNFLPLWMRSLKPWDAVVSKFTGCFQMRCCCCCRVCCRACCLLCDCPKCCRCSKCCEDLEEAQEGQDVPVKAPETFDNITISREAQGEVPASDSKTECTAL
- assay_remarks: Cellular binding of bivalent antibodies to IGROV-1 cells by flow cytometry (Example 13)
- cond: IGROV-1, 24 hours at 4° C.; NB = no cellular binding
recorded_endpoint: Bmax (MFI)

Ask | Reported Bmax (MFI) for v29459: humanized anti-NaPi2b IgG1/kappa antibody H2L1; VH SEQ ID NO:25, VL SEQ ID NO:28 (antibody, V domains shown, v29451, v29455, v29459 VH (H2); v29457, v29458, v29459, v29460 VL (L1)) VH: QVQLVQSGAEVKKPGASVKVSCKASGFTFTSYNVHWVRQAPGQGLEWIAAISPGNGDLSYAQKFQGRVTMTVDTSTSTVYMELSSLRSEDTAVYYCARGRTGMGAVDYWGQGTLVTVSS VL: DIQMTQSPSSLSASVGDRVTITCRASQDVYSYLNWYQQKPGKAPKLLIYYTSRLQSGVPSRFSGSGSGTDFTLTISSLQPEDFATYYCQQYNIFPWTFGQGTKLEIK : what is it?
Reply | 40,941 MFI
